target.or.test.system: T1, recombinant human domain 1-3His6 of the cation-independent mannose-6-phosphate receptor (human, UniProt P11717 41-467)
T1 construct: Biotinylated (NHS-PEG4-biotin) for BLI; Glycosylated; also called hDom1-3His6; hCI-M6PRD1-D3
measurement.description: BLI exp 2, dissoc pH 7.4
experimental.readout: koff (s⁻¹)
The answer is to be given in s⁻¹; state only the numeric part.

Which koff value is on record for anti-CI-M6PR VHH4 (VHH, His6-tagged; made in Pichia pastoris) VHH: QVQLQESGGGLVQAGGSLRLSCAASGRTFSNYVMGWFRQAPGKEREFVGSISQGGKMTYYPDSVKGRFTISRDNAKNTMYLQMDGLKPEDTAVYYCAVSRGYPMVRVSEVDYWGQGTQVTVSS ?
0.00133

Which koff value is on record for anti-CI-M6PR VHH10 (VHH, His6-tagged; made in Pichia pastoris) VHH: QVQLQESGGGSVQAGGSLRLSCAPAGRTFSRIRMGWFRQAPGKEREFVAAISSGGLSYYADSMKGRFTISRDNAKNTVLLQMNSLEPDDTAVYYCAAVLNDYIDDYVARNPTLYDYWGQGTQVTVSS ?
0.00177

Which koff value is on record for anti-CI-M6PR VHH1 (VHH, His6-tagged; made in Pichia pastoris, later also in E. coli WK6) VHH: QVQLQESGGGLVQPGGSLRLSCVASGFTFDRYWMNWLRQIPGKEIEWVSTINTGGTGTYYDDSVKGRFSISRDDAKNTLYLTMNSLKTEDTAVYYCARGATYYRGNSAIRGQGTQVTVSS ?
0.0099

Which koff value is on record for anti-CI-M6PR VHH8 (VHH, His6-tagged (Pichia pastoris)) VHH: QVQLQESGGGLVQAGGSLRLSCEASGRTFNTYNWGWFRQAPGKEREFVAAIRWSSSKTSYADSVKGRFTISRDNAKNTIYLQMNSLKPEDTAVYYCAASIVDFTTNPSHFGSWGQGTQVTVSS ?
0.00065
